Molecular target: T1, human BAFFR on HEK-293T-BAFFR cells (human, UniProt Q96RJ3 1-184)
T1 sequence: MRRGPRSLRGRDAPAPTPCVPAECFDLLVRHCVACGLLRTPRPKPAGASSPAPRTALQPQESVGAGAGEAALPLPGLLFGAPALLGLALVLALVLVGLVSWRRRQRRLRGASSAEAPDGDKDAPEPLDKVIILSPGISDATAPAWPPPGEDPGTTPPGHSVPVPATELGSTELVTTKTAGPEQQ
Assay: cell-based or functional assay
Each entry below carries its reported EC50 (ng/ml), ADCC reporter assay (Jurkat-NFAT-CD16a luciferase).

Field: example entries. Status: answers known.
{"columns": ["binder", "result"],
 "data": [
  ["NB467-55 (Fc fusion, also called nanobody NB467-55; anti-BAFFR nanobody; not shown: Human IgG1 Fc fused to the VHH) EVQVVESGGDLVQPGGSLKLSCQASGFSLTYYAIGWFRQAPGKEREEISCISGDGGMTYYADPVKGRFTISRDNGRNTVYLQMNSLKPEDTAVYYCAADVYYNGNYYSRSCNPAESKYWGQGTQVTVSA", "5.09 ng/mL"],
  ["NB467-8 (Fc fusion, also called nanobody NB467-8; anti-BAFFR nanobody; not shown: Human IgG1 Fc fused to the VHH) QVQLVESGGGLVQPGGSLRLSCAASGFSLEYYAIGWFRHIPGKEREAVSCISSPGDSTWYVDSVKGRFTISRDNAKNTVYLQMNSLKPEDTAVYHCAADVYYSGSYLSRSCNPHESKYWGQGTQVTVSS", "2.89 ng/mL"]
]}

Any idea what its EC50 (ng/ml), ADCC reporter assay (Jurkat-NFAT-CD16a luciferase) is? The binder is NB467-46 (Fc fusion, also called nanobody NB467-46; anti-BAFFR nanobody; not shown: Human IgG1 Fc fused to the VHH) EVQVVESGGGLVQPGGSLRLSCAASGFSLTYYAIGWFRQAPGKEREGVACISGGGDQLYYTDSVKGRFTISRDNAKNTVYLHMNSLKPEDTAVYYCAADVYYSGSYNYRSCNPAESKYWGQGTQVTVSS 4.55 ng/mL

Any idea what its EC50 (ng/ml), ADCC reporter assay (Jurkat-NFAT-CD16a luciferase) is? The binder is NB467-35 (Fc fusion, also called nanobody NB467-35; anti-BAFFR nanobody; not shown: Human IgG1 Fc fused to the VHH) QVQLVESGGGLVQPGGSLRLSCAASGFSLEYYAIGWFRQTPGKEREAISCIDSPAKSTYYADSVKGRFTISRDNSKNTVYLQMNSLKAEDTAVYYCAADVYYRGSYLYRSCNPTESKYWGQGTQVTVSS 2.67 ng/mL
